biological target: full-length tau (T40) in fibroblast cells (3T6) (Homo sapiens, UniProt P10636); construct: fibroblast cells (3T6) express full-length tau (“T40”) under control of an inducible promoter; low constitutive levels of the PHF-core tau fragment (12 kD fragment); expressed in transfected cells; host or cells: 3T6 fibroblast cells; test: Cell-based assay for establishing EC50 (generation of the 12 kD fragment)
Sequence (P10636 2-441 isoform P10636-8 limits assumed): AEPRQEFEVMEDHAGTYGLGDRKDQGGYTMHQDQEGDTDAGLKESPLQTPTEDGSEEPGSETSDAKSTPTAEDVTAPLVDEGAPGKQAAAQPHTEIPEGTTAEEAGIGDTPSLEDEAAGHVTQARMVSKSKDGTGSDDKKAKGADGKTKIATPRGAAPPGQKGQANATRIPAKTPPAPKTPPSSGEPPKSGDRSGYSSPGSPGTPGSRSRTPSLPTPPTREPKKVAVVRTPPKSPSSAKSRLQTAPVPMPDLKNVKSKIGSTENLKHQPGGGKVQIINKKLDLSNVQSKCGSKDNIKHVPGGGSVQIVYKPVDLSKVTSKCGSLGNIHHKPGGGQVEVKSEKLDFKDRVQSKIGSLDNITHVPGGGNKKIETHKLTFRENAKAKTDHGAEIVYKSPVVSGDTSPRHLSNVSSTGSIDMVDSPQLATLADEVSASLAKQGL
quantity_measured: EC50 (nM)
Number in nM, nothing else.

Value lookup for EC50; key = "CN(C)c1ccc2c(c1)Sc1cc(N(C)C)ccc1N2"
380

From: patent US12324810B2
